Tested on: HL-60
Assay: Cytotoxicity against human HL60 cells after 48 hrs by SRB method
Assay type: functional, cell-based
Conditions: HL-60, 48 h
Below, each of the compounds is paired with its reported pIC50 value.
The value called pIC50 is obtained by taking minus log10 of the concentration in mol/L.

Example results:
{"columns": ["Smiles text", "pIC50"],
 "data": [
  ["CC(=O)[C@@]12O[C@@H]1[C@@]1(C)C(=CC2=O)[C@H](O)CC[C@@H]1C", 4.89],
  ["C/C=C(/CO)C(=O)O[C@@H]1C2=C(C)C(=O)O[C@]2(OC)C[C@@]23O[C@@H]2CC[C@H](C)[C@@]13C", 4.89]
]}

Here is another compound to look at.
Item under review: CO[C@@]12[C@H](COC(N)=O)C3=C(C(=O)C(C)=C(N)C3=O)N1C[C@@H]1N[C@@H]12 . Reported pIC50? 5.52
